Biological target: GB1-AF9 (Homo sapiens, UniProt P42568)
Construct: the recombinant GB1-AF9 protein (residues 497-568); made in house; host or cells: Escherichia coli BL21 (DE3)
Sequence (P42568 497-568): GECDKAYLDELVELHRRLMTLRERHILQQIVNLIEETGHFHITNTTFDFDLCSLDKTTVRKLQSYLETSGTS
Assay: FP competitive binding, displacement of Flu-DOT1L from GB1-AF9
Conditions: read-out: IC50, competition with DOT1L 10-mer fluorescein-labeled peptide for AF9

| substance | target or test system | IC50 (nM) |
| --- | --- | --- |
| recombinant AF4 protein: AF4 recombinant protein (749-775 residues) (LSPLRDTPPPQSLMVKITLDLLSRIPQ) | GB1-AF9 (Homo sapiens, UniProt P42568) | 560 |
